Value source: patent US20090275085A1

# System: purified X. dendrorhous enzyme (F-3)
# Procedure details: Glycosyltransferase activity: incubating maltose (240 g/l) with the purified X. dendrorhous enzyme (F-3), HPLC analysis
# Format: biochemical, Xanthophyllomyces dendrorhous
# Measurement conditions: reaction time 117 h; 240 g maltose/l, 0.2 M sodium acetate pH 5.4, 40° C., 150 rpm
Documented Composition of the reaction mixture across a set of molecules

Molecule: OC[C@H]1O[C@H](OC[C@H]2OC(O)[C@H](O)[C@@H](O)[C@@H]2O)[C@H](O)[C@@H](O)[C@@H]1O (some centres unmarked)
Composition of the reaction mixture / grams/liter: 12.7
//
Molecule: OC[C@H]1O[C@H](OC[C@H]2O[C@H](O[C@H]3[C@H](O)[C@@H](O)C(O)O[C@@H]3CO)[C@H](O)[C@@H](O)[C@@H]2O)[C@H](O)[C@@H](O)[C@@H]1O (some centres unmarked)
Composition of the reaction mixture / grams/liter: 14.7
//
Molecule: OC[C@H]1O[C@H](O[C@H]2[C@H](O)[C@@H](O)[C@@H](O[C@H]3[C@H](O)[C@@H](O)C(O)O[C@@H]3CO)O[C@@H]2CO)[C@H](O)[C@@H](O)[C@@H]1O (some centres unmarked)
Composition of the reaction mixture / grams/liter: 42.6
//
Molecule: OC[C@H]1O[C@H](O[C@H]2[C@H](O)[C@@H](O)[C@@H](O[C@H]3[C@H](O)[C@@H](O)[C@@H](O[C@H]4[C@H](O)[C@@H](O)C(O)O[C@@H]4CO)O[C@@H]3CO)O[C@@H]2CO)[C@H](O)[C@@H](O)[C@@H]1O (some centres unmarked)
Composition of the reaction mixture / grams/liter: 11.0
//
Molecule: OC[C@H]1O[C@H](OC[C@H]2O[C@H](O[C@H]3[C@H](O)[C@@H](O)[C@@H](O[C@H]4[C@H](O)[C@@H](O)[C@@H](O)O[C@@H]4CO)O[C@@H]3CO)[C@H](O)[C@@H](O)[C@@H]2O)[C@H](O)[C@@H](O)[C@@H]1O
Composition of the reaction mixture / grams/liter: 8.8
